Molecular target: 5-HT2C receptor (Homo sapiens, UniProt P28335)
Construct: host or cells: U2OS
Sequence (P28335 33-458): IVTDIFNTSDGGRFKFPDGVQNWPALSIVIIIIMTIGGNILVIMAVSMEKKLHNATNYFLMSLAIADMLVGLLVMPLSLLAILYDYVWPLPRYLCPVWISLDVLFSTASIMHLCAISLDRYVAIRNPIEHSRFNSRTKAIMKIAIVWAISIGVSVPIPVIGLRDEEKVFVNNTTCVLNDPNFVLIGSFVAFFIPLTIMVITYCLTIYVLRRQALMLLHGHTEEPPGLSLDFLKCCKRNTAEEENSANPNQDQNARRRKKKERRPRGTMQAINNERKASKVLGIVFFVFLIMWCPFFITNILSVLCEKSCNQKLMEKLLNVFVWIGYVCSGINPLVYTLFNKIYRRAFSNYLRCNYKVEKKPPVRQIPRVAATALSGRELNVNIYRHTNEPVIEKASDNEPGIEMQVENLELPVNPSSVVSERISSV
Sequence (P32121 whole entry partner): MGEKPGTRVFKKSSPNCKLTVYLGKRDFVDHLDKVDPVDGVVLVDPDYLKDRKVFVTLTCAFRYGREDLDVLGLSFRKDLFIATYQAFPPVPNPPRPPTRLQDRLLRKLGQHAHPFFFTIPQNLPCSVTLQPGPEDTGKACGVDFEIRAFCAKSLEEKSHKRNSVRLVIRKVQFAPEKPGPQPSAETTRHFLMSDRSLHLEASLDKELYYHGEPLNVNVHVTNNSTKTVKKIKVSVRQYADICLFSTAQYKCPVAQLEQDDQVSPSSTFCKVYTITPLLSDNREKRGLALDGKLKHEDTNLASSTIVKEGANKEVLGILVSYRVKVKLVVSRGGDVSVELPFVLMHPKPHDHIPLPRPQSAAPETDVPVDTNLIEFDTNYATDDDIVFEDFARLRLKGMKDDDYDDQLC
Assay: Human 5-HT2C functional assay (beta-arrestin2 recruitment, U2OS_HTR2C_β-Arrestin cells)
Assay type: cell-based
pEC50: −log10 of the molar value.
endpoint_name: pEC50

Ask: Would you mind telling me what pEC50 value was observed for COC[C@@H]1C[C@@H]2CNCCN2c2ccccc2O1.O=C(O)C(F)(F)F [Example 3] ?
Result: 6.00 to 6.70

====

Target: human 5-HT2A receptor (Homo sapiens, UniProt P28223)
Construct: expressed in transfected cells; host or cells: CHO-K1
Sequence (P28223 whole entry): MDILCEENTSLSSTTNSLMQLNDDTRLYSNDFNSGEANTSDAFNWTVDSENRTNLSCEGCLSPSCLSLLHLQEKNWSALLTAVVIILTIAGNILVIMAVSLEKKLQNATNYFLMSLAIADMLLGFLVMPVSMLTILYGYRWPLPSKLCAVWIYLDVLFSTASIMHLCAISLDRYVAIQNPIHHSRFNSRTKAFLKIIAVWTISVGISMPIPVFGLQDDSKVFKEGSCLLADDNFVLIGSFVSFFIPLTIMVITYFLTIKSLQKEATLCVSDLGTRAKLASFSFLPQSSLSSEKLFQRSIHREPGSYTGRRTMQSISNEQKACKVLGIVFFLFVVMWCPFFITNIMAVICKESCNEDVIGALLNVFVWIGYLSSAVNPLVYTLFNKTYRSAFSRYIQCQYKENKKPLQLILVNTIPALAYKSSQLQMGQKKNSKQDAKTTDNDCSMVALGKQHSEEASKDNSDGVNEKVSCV
Assay: Human 5-HT2A functional assay (calcium mobilisation in CHO-K1 cells, FLIPR)
Assay type: cell-based
Details: based on agonism: EC50 5-HT2A/EC50 5-HT2C
endpoint_name: Selectivity over 5-HT2A

{"given_smiles": "COC[C@@H]1C[C@@H]2CNCCN2c2cc(F)cc(C3CC3)c2O1.Cl", "Selectivity over 5-HT2A": "++ (from >30 to 100)"}
{"given_smiles": "COC[C@@H]1C[C@@H]2CNCCN2c2c(F)c(F)cc(C(F)F)c2O1.Cl", "Selectivity over 5-HT2A": "+++ (>100)"}
{"given_smiles": "Cl.OC[C@@H]1C[C@@H]2CNCCN2c2cc(F)cc(C(F)F)c2O1", "Selectivity over 5-HT2A": "+ (from 10 to 30)"}
{"given_smiles": "COC[C@@H]1C[C@@H]2CNCCN2c2cccc(C3CC3)c2O1.Cl", "Selectivity over 5-HT2A": "+ (from 10 to 30)"}
{"given_smiles": "COC[C@@H]1C[C@@H]2CNCCN2c2cc(F)cc(Cl)c2O1.Cl", "Selectivity over 5-HT2A": "+++ (>100)"}

Ask: API: value(readout= Selectivity over 5-HT2A, system= human 5-HT2A receptor (Homo sapiens, UniProt P28223), query= COC[C@@H]1C[C@@H]2CNCCN2c2c(F)c(F)c(OC)c(Cl)c2O1.Cl )
Result: +++ (>100)

Ask: // same read-out, input: COC[C@@H]1C[C@@H]2CNCCN2c2c(F)c(OC)cc(C(F)F)c2O1.Cl
Result: +++ (>100)

====

Experiment: Metabolic stability in human liver microsomes, unbound intrinsic clearance
Type: in vitro ADME
Details: liver microsomes, pH 7.4; unbound intrinsic clearance (human); Clint unbound = Cl int/fu mic; read-out: Cl int, mic unb. (h)
endpoint_name: CLint scaled at 0.5 μM

{"compound": "COC[C@@H]1C[C@@H]2CNCCN2c2cc(Cl)ccc2O1.Cl [Example 10, hydrochloride]", "reported_result": "83.3 to 833 mL/min/kg"}
{"compound": "COC[C@H]1C[C@@H]2CNCCN2c2cc(F)cc(C(F)F)c2O1.Cl [Example 32, hydrochloride]", "reported_result": "< 83.3 mL/min/kg"}
{"compound": "COC[C@@H]1C[C@@H]2CNCCN2c2cc(F)cc(C(F)(F)F)c2O1.Cl [Example 22, hydrochloride]", "reported_result": "< 83.3 mL/min/kg"}

Okay, now this compound:
Ask: // CLint scaled at 0.5 μM lookup, key: COC[C@@H]1C[C@@H]2CNCCN2c2c(F)c(F)cc(C#N)c2O1.Cl [Example 28, hydrochloride]
Result: < 83.3 mL/min/kg

====

Each item that follows carries a reported pEC50.
Molecular target: 5-HT2C receptor (Homo sapiens, UniProt P28335)
Construct: host or cells: U2OS
Experiment: Human 5-HT2C functional assay (beta-arrestin2 recruitment, U2OS_HTR2C_β-Arrestin cells)
Type: cell-based
Settings: Potency (EC50 5-HT2C) in functional assay; agonism; read-out: EC50 5-HT2C
pEC50: −log10 of the molar value. Structures can show the parent of a compound that is named as a salt.

{"compound": "C#Cc1cc(F)c(F)c2c1O[C@H](COC)C[C@@H]1CNCCN21.Cl [Example 40, hydrochloride]", "pEC50": "> 7.70"}

Ask: Given the compound COC[C@@H]1C[C@@H]2CNCCN2c2cc(F)cc(C3CC3)c2O1.Cl [Example 49, hydrochloride] , what is its reported pEC50?
Result: > 7.70

Ask: Try this compound too: COC[C@@H]1C[C@@H]2CNCCN2c2cccc(Cl)c2O1.Cl [Example 1, hydrochloride]
Result: > 7.70

Ask: What do you have for COC[C@H]1C[C@@H]2CNCCN2c2c(F)c(F)cc(Cl)c2O1.Cl [Example 37, hydrochloride] ?
Result: 6.00 to 6.70

Ask: Again, but for COC[C@@H]1C[C@@H]2CNCCN2c2cc(F)cc(C(F)F)c2O1.Cl [Example 9, hydrochloride]
Result: > 7.70

Ask: Try COC[C@@H]1C[C@@H]2CNCCN2c2c(F)c(F)cc(C(F)(F)F)c2O1.Cl [Example 56, hydrochloride] next.
Result: 6.70 to 7.70

Ask: Entry Cl.OC[C@@H]1C[C@@H]2CNCCN2c2cc(F)cc(C(F)F)c2O1 [Example 23, hydrochloride] please
Result: > 7.70

Ask: Input OC[C@@H]1C[C@@H]2CNCCN2c2cc(F)cc(Cl)c2O1 [Example 17, hydrochloride]
Result: > 7.70

====

Target: human 5-HT2A receptor (Homo sapiens)
Construct: expressed in transfected cells; host or cells: CHO-K1
Assay: Human 5-HT2A functional assay (calcium mobilisation in CHO-K1 cells, FLIPR)
Type: cell-based
Conditions: based on agonism: EC50 5-HT2A/EC50 5-HT2C
endpoint_name: Selectivity over 5-HT2A

{"given_smiles": "COC[C@@H]1C[C@@H]2CNCCN2c2cccc(C#N)c2O1.Cl", "test_system": "human 5-HT2A receptor (Homo sapiens)", "endpoint_name": "Selectivity over 5-HT2A", "reported_result": "+++ (>100)"}
{"given_smiles": "COC[C@H]1C[C@@H]2CNCCN2c2c(F)c(F)cc(Cl)c2O1.Cl", "test_system": "human 5-HT2A receptor (Homo sapiens)", "endpoint_name": "Selectivity over 5-HT2A", "reported_result": "+ (from 10 to 30)"}
{"given_smiles": "COC[C@@H]1C[C@@H]2CNCCN2c2c(F)cccc2O1.Cl", "test_system": "human 5-HT2A receptor (Homo sapiens)", "endpoint_name": "Selectivity over 5-HT2A", "reported_result": "+ (from 10 to 30)"}
{"given_smiles": "COC[C@@H]1C[C@@H]2CNCCN2c2cc(F)cc(C)c2O1.Cl", "test_system": "human 5-HT2A receptor (Homo sapiens)", "endpoint_name": "Selectivity over 5-HT2A", "reported_result": "+++ (>100)"}

====

Reported pEC50 values for the following molecules.
Biological target: 5-HT2C receptor (Homo sapiens)
Construct: host or cells: U2OS
Test: Human 5-HT2C functional assay (beta-arrestin2 recruitment, U2OS_HTR2C_β-Arrestin cells)
Format: cell-based
Conditions: Potency (EC50 5-HT2C) in functional assay; agonism; read-out: EC50 5-HT2C
pEC50: −log10 of the molar value.

{"molecule": "COC[C@@H]1C[C@@H]2CNCCN2c2c(F)c(F)c(F)c(Cl)c2O1.Cl [Example 55, hydrochloride]", "pEC50": "> 7.70"}
{"molecule": "COC[C@@H]1C[C@@H]2CNCCN2c2cc(F)cc(C(F)(F)F)c2O1.Cl [Example 22, hydrochloride]", "pEC50": "> 7.70"}
{"molecule": "COC[C@H]1C[C@@H]2CNCCN2c2cc(F)cc(Cl)c2O1.Cl [Example 35, hydrochloride]", "pEC50": "6.70 to 7.70"}
{"molecule": "COC[C@@H]1C[C@@H]2CNCCN2c2c(F)c(F)cc(Cl)c2O1.Cl [Example 16, hydrochloride]", "pEC50": "> 7.70"}

Ask: Which pEC50 reading was recorded for the molecule COC[C@@H]1C[C@@H]2CNCCN2c2c(F)ccc(Cl)c2O1.O=C(O)/C=C/C(=O)O ?
Result: > 7.70

Ask: Param item: Cl.OC[C@@H]1C[C@@H]2CNCCN2c2cccc(Cl)c2O1 [Example 14, hydrochloride]
Result: 6.70 to 7.70

Ask: And for COC[C@@H]1C[C@@H]2CNCCN2c2c(F)c(F)c(OC)c(Cl)c2O1.Cl [Example 53, hydrochloride] ?
Result: 6.70 to 7.70

Ask: Then this molecule: Cl.OC[C@@H]1C[C@@H]2CNCCN2c2c(F)c(F)cc(Cl)c2O1 [Example 20, hydrochloride]
Result: 6.70 to 7.70

====

Molecular target: human 5-HT2B receptor (Homo sapiens, UniProt P41595)
Construct: expressed in transfected cells; host or cells: CHO-FlpIn
Sequence (P41595 whole entry): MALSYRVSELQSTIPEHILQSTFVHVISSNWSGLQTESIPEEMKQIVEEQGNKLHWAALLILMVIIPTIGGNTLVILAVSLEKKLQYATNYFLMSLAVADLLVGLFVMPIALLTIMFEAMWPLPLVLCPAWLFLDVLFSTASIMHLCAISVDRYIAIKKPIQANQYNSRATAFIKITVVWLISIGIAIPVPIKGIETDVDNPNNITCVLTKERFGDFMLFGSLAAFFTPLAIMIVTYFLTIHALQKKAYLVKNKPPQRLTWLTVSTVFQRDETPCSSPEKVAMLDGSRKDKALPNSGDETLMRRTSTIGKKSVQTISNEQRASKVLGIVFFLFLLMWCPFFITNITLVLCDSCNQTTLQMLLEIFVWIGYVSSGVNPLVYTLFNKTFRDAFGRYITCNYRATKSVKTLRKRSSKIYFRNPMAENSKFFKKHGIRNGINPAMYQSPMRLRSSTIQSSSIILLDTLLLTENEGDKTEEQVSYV
Assay: Human 5-HT2B functional assay (calcium mobilisation in CHO-FlpIn cells, FLIPR)
Type: cell-based
Conditions: based on agonism: EC50 5-HT2B/EC50 5-HT2C
endpoint_name: Selectivity over 5-HT2B

{"given_smiles": "COC[C@@H]1C[C@@H]2CNCCN2c2c(F)c(F)cc(C(F)F)c2O1.Cl", "test_system": "human 5-HT2B receptor (Homo sapiens, UniProt P41595)", "reported_result": "+++ (>100)"}
{"given_smiles": "COC[C@@H]1C[C@@H]2CNCCN2c2cc(Cl)cc(Cl)c2O1", "test_system": "human 5-HT2B receptor (Homo sapiens, UniProt P41595)", "reported_result": "++ (from >30 to 100)"}
{"given_smiles": "COC[C@@H]1C[C@@H]2CNCCN2c2c(F)c(F)cc(C#N)c2O1.Cl", "test_system": "human 5-HT2B receptor (Homo sapiens, UniProt P41595)", "reported_result": "+ (from 10 to 30)"}
{"given_smiles": "COC[C@@H]1C[C@@H]2CNCCN2c2cc(F)cc(Cl)c2O1.Cl", "test_system": "human 5-HT2B receptor (Homo sapiens, UniProt P41595)", "reported_result": "+++ (>100)"}
{"given_smiles": "COC[C@@H]1C[C@@H]2CNCCN2c2cc(F)cc(C#N)c2O1.Cl", "test_system": "human 5-HT2B receptor (Homo sapiens, UniProt P41595)", "reported_result": "++ (from >30 to 100)"}

Ask: What value of measured Selectivity over 5-HT2B is listed for COC[C@H]1C[C@@H]2CNCCN2c2cc(F)cc(C(F)F)c2O1.Cl ?
Result: ++ (from >30 to 100)

Ask: Same lookup for C#Cc1cc(F)c2c(c1)N1CCNC[C@H]1C[C@@H](COC)O2.O=C(O)C(O)C(O)C(=O)O , please.
Result: + (from 10 to 30)

Ask: Try this compound next: Cl.Fc1cc(Cl)c2c(c1)N1CCNC[C@H]1C[C@@H](COC(F)F)O2
Result: ++ (from >30 to 100)

Ask: // query: COC[C@@H]1C[C@@H]2CNCCN2c2cc(C(F)(F)F)cc(Cl)c2O1
Result: +++ (>100)

Ask: Now the compound COC[C@@H]1C[C@@H]2CNCCN2c2cc(F)c(F)c(Cl)c2O1.Cl
Result: ++ (from >30 to 100)

Ask: COC[C@@H]1C[C@@H]2CNCCN2c2ccccc2O1.O=C(O)C(F)(F)F ?
Result: + (from 10 to 30)
